Reported values of pEC50 for individual entries
# targetUnderTest: T1, recombinant human transferrin receptor 1 (human, UniProt P02786 89-760)
# T1 construct: Recombinant protein used in ELISA and SPR; also called hTfR1; huTfR1
# T1 sequence (P02786 89-760 limits assumed): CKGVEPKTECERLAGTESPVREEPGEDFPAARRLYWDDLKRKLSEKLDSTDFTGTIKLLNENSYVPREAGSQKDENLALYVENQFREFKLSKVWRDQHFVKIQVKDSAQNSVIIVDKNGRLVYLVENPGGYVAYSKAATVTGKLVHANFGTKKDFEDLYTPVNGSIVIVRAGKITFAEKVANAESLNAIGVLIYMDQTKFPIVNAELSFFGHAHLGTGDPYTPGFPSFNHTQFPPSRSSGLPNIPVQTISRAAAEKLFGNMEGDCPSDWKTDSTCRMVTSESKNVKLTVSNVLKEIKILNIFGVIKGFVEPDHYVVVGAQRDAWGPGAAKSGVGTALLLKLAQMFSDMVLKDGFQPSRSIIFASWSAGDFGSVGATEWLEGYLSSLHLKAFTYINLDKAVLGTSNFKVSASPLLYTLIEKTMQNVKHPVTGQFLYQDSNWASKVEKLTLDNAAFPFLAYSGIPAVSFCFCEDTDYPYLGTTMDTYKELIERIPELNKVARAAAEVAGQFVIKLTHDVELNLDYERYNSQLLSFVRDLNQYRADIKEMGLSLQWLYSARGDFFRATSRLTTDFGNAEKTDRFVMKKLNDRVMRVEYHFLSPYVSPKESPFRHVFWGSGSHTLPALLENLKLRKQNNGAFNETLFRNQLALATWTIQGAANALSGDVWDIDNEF
# measurementDescription: ELISA, DMPK oligo (ASO300) conjugate binding to hTfR1
Scale: pEC50 equals -log10([C]), with [C] in mol/L.

5H12 (VH5-C33Y/Vk4) Fab conjugated to DMPK-targeting oligonucleotide ASO300 (Fab, V domains shown, Fab covalently conjugated to ASO300) VH: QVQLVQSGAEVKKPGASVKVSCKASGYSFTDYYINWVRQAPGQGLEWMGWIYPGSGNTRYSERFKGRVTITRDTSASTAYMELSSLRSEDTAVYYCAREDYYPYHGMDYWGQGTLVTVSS VL: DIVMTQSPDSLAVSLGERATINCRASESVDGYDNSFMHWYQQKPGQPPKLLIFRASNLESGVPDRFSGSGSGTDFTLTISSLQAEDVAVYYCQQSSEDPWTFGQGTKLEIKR | 7.86

// query pEC50 value for entry 3M12 (VH3/Vk2) Fab conjugated to DMPK-targeting oligonucleotide ASO300 (Fab, V domains shown, Fab covalently conjugated to antisense oligonucleotide ASO300 (linker of Formula (C)); also called 3M12 (VH3/Vk2) conjugate; DMPK oligo conjugate) VH: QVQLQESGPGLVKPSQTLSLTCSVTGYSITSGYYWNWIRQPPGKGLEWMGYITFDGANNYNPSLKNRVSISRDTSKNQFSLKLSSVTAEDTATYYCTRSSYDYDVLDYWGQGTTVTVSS VL: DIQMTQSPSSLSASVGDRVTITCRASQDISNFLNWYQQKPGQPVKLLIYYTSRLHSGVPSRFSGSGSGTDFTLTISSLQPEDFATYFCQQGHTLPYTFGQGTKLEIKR
8.94
